Data provenance is patent US20260035432A1.

Biological target: T1, ROR1-His (UniProt Q01973 30-403, limits assumed)
T1 construct: The construct is described nowhere; not shown: His tag
T1 sequence (Q01973 30-403 limits assumed): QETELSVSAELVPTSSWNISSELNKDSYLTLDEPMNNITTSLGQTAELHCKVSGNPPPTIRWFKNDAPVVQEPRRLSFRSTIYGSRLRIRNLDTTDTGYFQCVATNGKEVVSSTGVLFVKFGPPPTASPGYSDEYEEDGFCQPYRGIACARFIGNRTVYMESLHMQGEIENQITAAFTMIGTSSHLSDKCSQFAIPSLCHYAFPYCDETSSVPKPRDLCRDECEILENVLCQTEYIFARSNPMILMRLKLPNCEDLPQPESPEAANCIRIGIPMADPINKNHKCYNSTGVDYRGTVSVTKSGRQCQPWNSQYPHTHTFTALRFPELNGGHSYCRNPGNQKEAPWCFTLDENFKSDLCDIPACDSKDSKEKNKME
Assay: ROR1-His affinity of the construct's binding domain; method not given
RECORDED_METRIC: Kd (nM)
// return numeric value only (unit: nM, not printed)

**Query** Please report the recorded Kd for Hum ROR1_18VH_(G4S)3x_VL_14 (antibody, mouse IgG1, V domains shown, The name reads as an scFv with a (G4S)3 linker; The method text says variable regions were fused to mouse constant regions (chimeric mouse IgG1); VH/VL are tied by the numbers in the name) VH: EVQLVESGGGLVQPGGSLRLSCSASGFTFSSYAMSWVRQVPGKGLVWISSISRGGTTYYADSVRGRFIISRDNAKNTLYLEMNNLRGEDTAVYYCARYDYDGYYAMDYWGQGTLVTVSS VL: DIQMTQSPSSLSASVGDRVTITCKASPDINSYLNWYQQKPGKAPKLLIYRANRLVDGVPSRFSGSGSGTDYTLTISSLQPEDFATYYCLQYDEFPYTFGAGTKVEIK .
**Result** 0.209

**Query** Sample Hum_design_14_variant4 (antibody, V domains shown, Variable regions fused to mouse constant regions (chimeric mouse IgG1 mAb) for SPR; also called hROR1 VH_14-4 / hROR1 VL_14-4) VH: EVQLVESGGGLVQPGGSLRLSCAASGFTFSSYAMSWVRQAPGKGLEWVASISRGGTTYYPDSVKGRFTISRDNVRNILYLQMSSLRSEDTAMYYCGRYDYDGYYAMDYWGQGTLVTVSS VL: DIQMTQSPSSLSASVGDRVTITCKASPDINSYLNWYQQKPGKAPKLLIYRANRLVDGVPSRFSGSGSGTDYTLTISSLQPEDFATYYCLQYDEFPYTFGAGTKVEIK — what was its Kd?
**Result** 0.408
